Target: TRPM8 receptor (Homo sapiens)
Construct: ChanTest Corporation
Sequence (Q7Z2W7 whole entry): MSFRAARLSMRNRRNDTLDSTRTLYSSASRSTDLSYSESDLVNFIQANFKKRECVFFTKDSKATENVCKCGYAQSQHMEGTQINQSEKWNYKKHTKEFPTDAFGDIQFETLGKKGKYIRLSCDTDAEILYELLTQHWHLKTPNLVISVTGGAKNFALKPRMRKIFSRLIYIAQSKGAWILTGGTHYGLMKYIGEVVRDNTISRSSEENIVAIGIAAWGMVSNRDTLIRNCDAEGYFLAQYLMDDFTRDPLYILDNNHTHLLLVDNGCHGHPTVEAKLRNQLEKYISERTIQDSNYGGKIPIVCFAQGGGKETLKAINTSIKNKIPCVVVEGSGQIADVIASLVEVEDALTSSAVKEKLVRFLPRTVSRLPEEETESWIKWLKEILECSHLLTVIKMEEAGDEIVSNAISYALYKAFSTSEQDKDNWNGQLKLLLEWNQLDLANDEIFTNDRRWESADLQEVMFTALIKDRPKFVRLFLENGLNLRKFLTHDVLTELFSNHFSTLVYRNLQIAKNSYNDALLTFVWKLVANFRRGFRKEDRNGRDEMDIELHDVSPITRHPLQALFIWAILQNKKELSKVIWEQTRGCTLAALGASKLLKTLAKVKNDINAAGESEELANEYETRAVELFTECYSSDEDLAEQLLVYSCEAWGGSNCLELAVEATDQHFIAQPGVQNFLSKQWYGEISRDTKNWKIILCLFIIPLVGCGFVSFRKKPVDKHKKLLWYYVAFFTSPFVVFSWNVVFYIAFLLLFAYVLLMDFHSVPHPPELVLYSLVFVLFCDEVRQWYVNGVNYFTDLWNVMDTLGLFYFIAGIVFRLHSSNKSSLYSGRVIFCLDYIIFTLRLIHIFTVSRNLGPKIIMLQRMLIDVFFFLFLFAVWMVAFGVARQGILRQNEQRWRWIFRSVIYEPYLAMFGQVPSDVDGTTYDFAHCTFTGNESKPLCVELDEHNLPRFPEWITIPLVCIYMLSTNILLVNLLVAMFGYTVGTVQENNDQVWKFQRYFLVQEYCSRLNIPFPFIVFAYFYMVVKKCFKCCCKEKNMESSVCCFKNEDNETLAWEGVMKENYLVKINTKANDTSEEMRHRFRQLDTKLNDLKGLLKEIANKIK
Assay: Receptor assay, fluorescence (Relative Fluorescence Units), ChanTest
Assay type: cell-based
Conditions: FIG. 4
reportedProperty: Potency relative to 1-menthol in the same assay (×)

CCCCCP(=O)(C(C)CC)C(C)CC (stereo not shown) [2-5, 1-di(sec-butyl) phosphinoyl-pentane]    2.2

1. CCCCCCCCP(=O)(C(C)CC)C(C)CC (stereo not shown) [2-8, 1 [di-sec-butyl-phosphinoyl]-octane]
2. CCCCP(=O)(C(C)CC)C(C)CC (stereo not shown) [2-4, 1 [di-sec-butyl-phosphinoyl]-butane]
Response body: label of entry with the larger Potency relative to 1-menthol in the same assay; valid values 1 , 2 . Pick one and reply with its label.
1
